Reference for the values: patent US20240109865A1

Biological target: FGFR4 (Homo sapiens (Human))
Sequence (P22455 22-802): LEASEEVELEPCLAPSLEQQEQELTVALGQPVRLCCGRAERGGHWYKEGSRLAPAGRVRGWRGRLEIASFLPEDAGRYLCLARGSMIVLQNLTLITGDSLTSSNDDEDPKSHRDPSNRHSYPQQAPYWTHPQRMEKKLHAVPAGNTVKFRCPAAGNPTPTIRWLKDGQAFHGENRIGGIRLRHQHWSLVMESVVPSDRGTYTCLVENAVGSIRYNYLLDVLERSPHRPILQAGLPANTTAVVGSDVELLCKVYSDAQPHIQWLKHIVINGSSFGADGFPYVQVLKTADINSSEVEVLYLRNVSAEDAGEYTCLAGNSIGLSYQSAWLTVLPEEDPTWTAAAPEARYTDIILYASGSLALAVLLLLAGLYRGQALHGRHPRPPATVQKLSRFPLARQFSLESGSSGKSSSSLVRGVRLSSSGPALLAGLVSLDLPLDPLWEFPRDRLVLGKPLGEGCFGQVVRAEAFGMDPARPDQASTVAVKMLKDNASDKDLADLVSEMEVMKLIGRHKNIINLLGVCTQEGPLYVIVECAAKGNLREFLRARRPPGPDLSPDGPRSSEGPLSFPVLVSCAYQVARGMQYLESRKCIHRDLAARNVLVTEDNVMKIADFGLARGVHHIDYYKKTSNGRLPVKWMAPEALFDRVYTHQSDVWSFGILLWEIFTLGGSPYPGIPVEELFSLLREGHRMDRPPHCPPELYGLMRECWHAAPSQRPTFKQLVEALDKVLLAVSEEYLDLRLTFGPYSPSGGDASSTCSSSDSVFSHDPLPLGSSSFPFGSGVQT
Experiment: Kinase assay, binding constants (Kd), kinase-tagged T7 phage, qPCR

{"columns": ["MOLECULE", "Kd"],
 "data": [
  ["C[C@@H](Oc1cc2c(-c3cnc(N4CC5(C4)CN(S(C)(=O)=O)C5)c(F)c3)n[nH]c2cc1F)c1c(Cl)cncc1Cl [Example 256]", "1 to 20 nM"],
  ["Cc1cc(-c2n[nH]c3ccc(O[C@H](C)c4c(Cl)cnc(C)c4Cl)cc23)cnc1N1CC(CO)(CO)C1 [Example 234]", "1 to 20 nM"],
  ["C[C@@H](Oc1cc2c(-c3cnc(N4CC(C)(C)C4)c(CN(C)C)c3)n[nH]c2cc1Cl)c1c(Cl)cncc1Cl [Example 371]", "100 to 300 nM"],
  ["CNC1(C)CN(c2ncc(-c3n[nH]c4cc(Cl)c(O[C@H](C)c5c(Cl)cnc(C)c5Cl)cc34)cc2F)C1 [Example 275]", "1 to 20 nM"],
  ["Cc1cnnc(C)c1[C@@H](C)Oc1ccc2[nH]nc(-c3cnc(N4CCC[C@H]4CO)c(C#N)c3)c2c1 [Example 336]", "1 to 20 nM"],
  ["COc1cc(-c2n[nH]c3ccc(O[C@H](C)c4c(C)cnnc4C)cc23)cnc1N1CCC1 [Example 304]", "1 to 20 nM"],
  ["C[C@@H](Oc1ccc2[nH]nc(-c3ccc(N4CCC5(CCC(=O)N5)CC4)nc3)c2c1)c1c(Cl)cncc1Cl [Example 29]", "1 to 20 nM"],
  ["C[C@@H](Oc1ccc2[nH]nc(-c3ccc(N4CC(C(F)F)C4)nc3)c2c1)c1c(Cl)cncc1Cl [Example 252]", "1 to 20 nM"],
  ["C[C@@H](Oc1ccc2[nH]nc(-c3ccc(N4CC5(CN(CC(F)F)C5)C4)nc3)c2c1)c1c(Cl)cncc1Cl [Example 230]", "1 to 20 nM"],
  ["CNCc1cc(-c2n[nH]c3ccc(O[C@H](C)c4c(Cl)cncc4Cl)cc23)cnc1N1CC2(C1)CN(S(C)(=O)=O)C2 [Example 368]", "100 to 300 nM"],
  ["CCOC(=O)N1CC2(C1)CN(c1ccc(-c3n[nH]c4ccc(O[C@@H](C)c5c(C)cnnc5C)cc34)cn1)C2 [Example 151]", "100 to 300 nM"],
  ["Cc1cncc(C)c1[C@H](C)Oc1ccc2[nH]nc(-c3ccc(N4CC5(C4)CN(S(C)(=O)=O)C5)nc3)c2c1 [Example 140]", "> 300 nM"],
  ["COc1cc2[nH]nc(-c3cnc(N4CC[C@@H](C(C)(C)O)C4)c(C#N)c3)c2cc1O[C@H](C)c1c(C)cnnc1C [Example 321]", "1 to 20 nM"],
  ["COc1cc2[nH]nc(-c3ccc(N4CCCC4)nc3)c2cc1O[C@H](C)c1c(Cl)cnc(C)c1Cl [Example 220]", "1 to 20 nM"]
]}

====

Biological target: FGFR1 (Homo sapiens (Human), UniProt P11362)
Sequence (P11362 22-822): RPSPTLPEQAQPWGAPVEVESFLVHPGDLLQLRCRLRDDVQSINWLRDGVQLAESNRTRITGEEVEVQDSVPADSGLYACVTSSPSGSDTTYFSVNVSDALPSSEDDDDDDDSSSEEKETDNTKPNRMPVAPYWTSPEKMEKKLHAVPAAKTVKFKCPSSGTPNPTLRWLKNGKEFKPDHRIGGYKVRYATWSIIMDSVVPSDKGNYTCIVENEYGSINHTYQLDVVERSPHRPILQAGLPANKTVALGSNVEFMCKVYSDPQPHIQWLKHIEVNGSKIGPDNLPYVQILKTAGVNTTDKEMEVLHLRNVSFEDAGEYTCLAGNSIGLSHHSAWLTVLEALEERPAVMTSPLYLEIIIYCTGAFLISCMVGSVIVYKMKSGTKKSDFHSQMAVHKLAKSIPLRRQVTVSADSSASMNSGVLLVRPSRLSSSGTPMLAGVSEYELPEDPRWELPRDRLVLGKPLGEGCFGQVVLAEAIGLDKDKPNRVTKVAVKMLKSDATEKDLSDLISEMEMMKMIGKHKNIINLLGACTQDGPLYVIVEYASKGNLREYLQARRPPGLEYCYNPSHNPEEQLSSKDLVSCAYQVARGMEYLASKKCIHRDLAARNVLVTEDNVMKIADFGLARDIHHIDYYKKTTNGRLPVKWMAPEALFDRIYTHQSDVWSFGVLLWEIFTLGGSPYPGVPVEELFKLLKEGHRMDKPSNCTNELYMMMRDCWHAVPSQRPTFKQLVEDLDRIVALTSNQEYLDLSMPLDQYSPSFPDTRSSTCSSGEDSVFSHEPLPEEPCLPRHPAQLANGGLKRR
Experiment: Kinase assay, binding constants (Kd), kinase-tagged T7 phage, qPCR
Experimental: Kinase-tagged T7 phage strains were prepared in an E. coli host derived from the BL21 strain. E. coli were grown to log-phase and infected with T7 phage and incubated with shaking at 32° C. until lysis. The lysates were centrifuged and filtered to remove cell debris. […] Test compounds were prepared as 111λ stocks in 10000 DMS0. Kds were determined using an 11-point 3-fold compound dilution series with three DMSO control points. […] The kinase concentration in the eluates was measured by qPCR. […]
Each entry below carries its reported Kd.

{"columns": ["MOLECULE", "Kd"],
 "data": [
  ["C[C@@H](Oc1ccc2[nH]nc(-c3ccc(N4CCNCC4=O)nc3)c2c1)c1c(Cl)cncc1Cl", "20 to 100 nM"],
  ["Cc1cnnc(C)c1[C@H](C)Oc1ccc2[nH]nc(-c3cnc(N4CC5(C4)CN(S(C)(=O)=O)C5)nc3)c2c1", "> 300 nM"],
  ["C[C@@H](Oc1ccc2[nH]nc(-c3ccc(N4CC5(CCS(=O)(=O)C5)C4)nc3)c2c1)c1c(Cl)cncc1Cl", "1 to 20 nM"],
  ["C[C@@H](Oc1ccc2[nH]nc(-c3cnc(N4CC(O)C4)c(C#N)c3)c2c1)c1c(Cl)cnc(F)c1Cl", "> 300 nM"],
  ["C[C@@H](Oc1ccc2[nH]nc(-c3ccc(N4CC5(COC5)C4)nc3)c2c1)c1c(Cl)cnc(F)c1Cl", "20 to 100 nM"],
  ["C[C@@H](Oc1ccc2[nH]nc(-c3cnc(N4CC(C#N)C4)c(C#N)c3)c2c1)c1c(Cl)cncc1Cl", "20 to 100 nM"],
  ["C[C@@H](Oc1cc2c(-c3ccc(N4CC5(C4)CN(S(C)(=O)=O)C5)nc3)n[nH]c2cc1F)c1c(Cl)cncc1Cl", "1 to 20 nM"],
  ["C[C@@H](Oc1ccc2[nH]nc(-c3cnc(N4CC(F)(F)C4)c(C#N)c3)c2c1)c1c(Cl)cncc1Cl", "> 300 nM"],
  ["Cc1cnnc(C)c1[C@@H](C)Oc1ccc2[nH]nc(-c3cnc(N4CC[C@@H](O)C4)c(C#N)c3)c2c1", "100 to 300 nM"],
  ["C[C@@H](Oc1ccc2[nH]nc(-c3ccc(N4CC5(CN(C(=O)C(F)(F)F)C5)C4)nc3)c2c1)c1c(Cl)cncc1Cl", "1 to 20 nM"],
  ["COc1cc2[nH]nc(-c3cnc(N4CC5CC(C4)N5)c(C)c3)c2cc1O[C@H](C)c1c(C)cnnc1C", "1 to 20 nM"],
  ["C[C@@H](Oc1ccc2[nH]nc(-c3ccc(N4CC5(CCN(C)CC5)OC4=O)nc3)c2c1)c1c(Cl)cncc1Cl", "1 to 20 nM"],
  ["C[C@@H](Oc1ccc2[nH]nc(-c3ccc(N4CCNC(=O)CC4)nc3)c2c1)c1c(Cl)cncc1Cl", "1 to 20 nM"],
  ["COc1cc2[nH]nc(-c3ccc(N4CC5(COC5)C4)nc3)c2cc1O[C@H](C)c1c(C)cnnc1C", "1 to 20 nM"],
  ["C[C@@H](Oc1ccc2[nH]nc(-c3ccc(N4CC5(C4)CN(S(C)(=O)=O)C5)nc3)c2c1)c1c(Cl)cncc1Cl", "1 to 20 nM"],
  ["C[C@@H](Oc1ccc2[nH]nc(-c3cnc(N4CCC5(CC4)CCS(=O)(=O)C5)c(F)c3)c2c1)c1c(Cl)cncc1Cl", "1 to 20 nM"],
  ["C[C@@H](Oc1ccc2[nH]nc(-c3cnn(C4CCOCC4)c3)c2c1)c1c(Cl)cncc1Cl", "1 to 20 nM"],
  ["C[C@@H](Oc1ccc2[nH]nc(-c3cnc(N4CCC5(CC4)CC(=O)NC5=O)nc3)c2c1)c1c(Cl)cncc1Cl", "20 to 100 nM"],
  ["C[C@@H](Oc1ccc2[nH]nc(-c3cnc(N4CC5(CN(CC(F)F)C5)C4)c(C#N)c3)c2c1)c1c(Cl)cncc1Cl", "100 to 300 nM"],
  ["C[C@@H](Oc1ccc2[nH]nc(-c3cnn(C4CCN(C5COC5)CC4)c3)c2c1)c1c(Cl)cncc1Cl", "1 to 20 nM"],
  ["Cc1cnnc(C)c1[C@@H](C)Oc1ccc2[nH]nc(-c3ccc(N4CC5(COC5)C4)nc3)c2c1", "1 to 20 nM"],
  ["COc1cc2[nH]nc(-c3cnc(N4CC[C@@H](O)C4)c(C#N)c3)c2cc1O[C@H](C)c1c(C)cnnc1C", "20 to 100 nM"],
  ["Cc1cnnc(C)c1[C@@H](C)Oc1ccc2[nH]nc(-c3ccc(N4CC5(C4)CN(S(C)(=O)=O)C5)nc3)c2c1", "1 to 20 nM"],
  ["Cc1cnnc(C)c1[C@@H](C)Oc1ccc2[nH]nc(-c3cnc(N4CC5(C4)CN(S(C)(=O)=O)C5)nc3)c2c1", "100 to 300 nM"],
  ["C[C@@H](Oc1ccc2[nH]nc(-c3ccc(N4CC5(CCN(S(C)(=O)=O)C5)C4)nc3)c2c1)c1c(Cl)cncc1Cl [Example 115]", "1 to 20 nM"],
  ["COc1cc2[nH]nc(-c3cnc(N4CC[C@H]4C)c(F)c3)c2cc1O[C@H](C)c1c(Cl)cncc1Cl", "20 to 100 nM"],
  ["C[C@@H](Oc1ccc2[nH]nc(-c3ccc(C4CCN(S(C)(=O)=O)CC4)nc3)c2c1)c1c(Cl)cncc1Cl", "1 to 20 nM"],
  ["Cc1ncc(Cl)c([C@@H](C)Oc2ccc3[nH]nc(-c4ccc(N5CC6(C5)CN(S(C)(=O)=O)C6)nc4)c3c2)c1Cl", "20 to 100 nM"]
]}
